The reported measurements were obtained from patent US10189809B2.

# reported EC50; entries follow
Biological target: soluble guanylate cyclase (sGC) (Homo sapiens (Human), UniProt Q02108+Q02153)
Sequence (Q02153 whole entry): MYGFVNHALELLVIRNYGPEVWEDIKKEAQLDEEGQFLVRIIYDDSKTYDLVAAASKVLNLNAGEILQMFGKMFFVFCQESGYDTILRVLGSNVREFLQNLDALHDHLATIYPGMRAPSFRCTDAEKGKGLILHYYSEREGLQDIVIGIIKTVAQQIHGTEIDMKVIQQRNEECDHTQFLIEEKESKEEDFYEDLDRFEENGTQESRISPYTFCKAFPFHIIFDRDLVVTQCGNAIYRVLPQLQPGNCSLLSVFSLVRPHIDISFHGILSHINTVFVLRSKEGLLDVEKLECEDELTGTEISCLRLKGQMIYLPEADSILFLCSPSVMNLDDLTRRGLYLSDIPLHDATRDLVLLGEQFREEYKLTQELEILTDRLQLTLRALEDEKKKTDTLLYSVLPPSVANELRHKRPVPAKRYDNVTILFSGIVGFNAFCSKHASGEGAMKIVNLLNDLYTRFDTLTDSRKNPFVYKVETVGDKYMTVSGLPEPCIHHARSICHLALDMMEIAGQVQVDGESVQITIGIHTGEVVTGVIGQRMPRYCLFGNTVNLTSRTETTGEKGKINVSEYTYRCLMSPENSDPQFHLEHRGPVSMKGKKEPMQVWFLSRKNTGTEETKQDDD
Sequence (Q02108 whole entry): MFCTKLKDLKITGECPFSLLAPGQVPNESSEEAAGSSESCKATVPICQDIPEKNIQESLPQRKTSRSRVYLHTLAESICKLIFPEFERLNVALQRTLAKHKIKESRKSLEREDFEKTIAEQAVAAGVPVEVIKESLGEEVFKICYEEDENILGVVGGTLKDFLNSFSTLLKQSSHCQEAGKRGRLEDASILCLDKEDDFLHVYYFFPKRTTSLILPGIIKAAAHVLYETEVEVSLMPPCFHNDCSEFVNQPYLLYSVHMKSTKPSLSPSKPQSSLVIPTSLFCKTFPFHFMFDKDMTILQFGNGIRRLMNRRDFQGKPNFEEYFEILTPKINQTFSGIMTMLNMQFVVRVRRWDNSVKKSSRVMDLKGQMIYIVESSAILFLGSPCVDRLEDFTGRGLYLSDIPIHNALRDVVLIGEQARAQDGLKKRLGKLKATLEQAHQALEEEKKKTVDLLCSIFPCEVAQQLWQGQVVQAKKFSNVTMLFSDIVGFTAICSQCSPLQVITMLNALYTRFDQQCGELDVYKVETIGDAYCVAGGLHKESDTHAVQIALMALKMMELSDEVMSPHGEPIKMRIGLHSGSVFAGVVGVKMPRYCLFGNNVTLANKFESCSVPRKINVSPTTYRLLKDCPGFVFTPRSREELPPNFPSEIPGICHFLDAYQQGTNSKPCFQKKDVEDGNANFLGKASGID
Assay: sGC-HEK-cGMP assay run with SNP incubation (HEK WC assay)
Assay type: cell-based
Conditions: in the presence of 10 uM SNP
Description: Human embryonic kidney cells (HEK293), endogenously expressing soluble guanylate cyclase (sGC), were used to evaluate the activity of test compounds. Compounds stimulating the sGC receptor should cause an increase in the intracellular concentration of cGMP. […] EC50 values were calculated from concentration-response curves generated with GraphPad Prism Software.
measured-property: EC50

> print(dat)
                                         smi  measured.property  recorded.result
 1  Oc1nc(-c2cc(-c3ccon3)n(Cc3ccccc3F)n2)ncc1C(F)(F)F               EC50          < 20 µM
 2  CC(C)(C(=O)Nc1cnc(-c2cc(-c3ccon3)n(Cc3ccccc3F)n2)nc1N)c1ccccc1               EC50          < 20 µM
 3  Cc1ccccc1C(=O)Nc1cnc(-c2cc(-c3ccon3)n(Cc3ccccc3F)n2)nc1N               EC50          < 20 µM
 4  Nc1nc(-c2cc(-c3ccon3)n(Cc3ccccc3F)n2)ncc1NC(=O)OCCCl               EC50          < 20 µM
 5  O=c1cc(O)oc2nc(-c3cc(-c4ccon4)n(Cc4ccccc4F)n3)nc(O)c12               EC50    600 to 900 µM
 6  Nc1nc(-c2cc(-c3ccon3)n(Cc3ccccc3F)n2)ncc1N1CCCC1=O               EC50          < 20 µM
 7  CC(C)(C)S(=O)(=O)Nc1cnc(-c2cc(-c3ccon3)n(Cc3ccccc3F)n2)nc1N               EC50      20 to 40 µM
 8   Fc1cccc(Cn2nc(-c3ncccn3)cc2-c2ccon2)c1F               EC50          < 20 µM
 9      Fc1ccccc1Cn1nc(-c2ncccn2)cc1-c1ncco1               EC50          < 20 µM
10  Cc1nc(-c2cc(-c3ccon3)n(Cc3ccccc3F)n2)nc(O)c1F               EC50     60 to 100 µM
11  COc1cnc(-c2cc(-c3ccon3)n(Cc3ccccc3F)n2)nc1N               EC50    100 to 300 µM
12      Fc1ccccc1Cn1nc(-c2ncccn2)cc1-c1ccco1               EC50          < 20 µM
13  Nc1ccnc(-c2cc(-c3cnco3)n(Cc3ccccc3F)n2)n1               EC50          < 20 µM
14  Nc1nc(-c2cc(-c3ccon3)n(Cc3ccccc3F)n2)ncc1NC(=O)c1cocn1               EC50          < 20 µM
15  Cc1cc(Cl)nc(-c2cc(-c3ccon3)n(Cc3ccccc3F)n2)n1               EC50          < 20 µM
16  Nc1nc(-c2cc(-c3ccon3)n(Cc3ccccc3F)n2)ncc1NC(=O)C(F)(F)c1ccccc1               EC50      20 to 40 µM
17  CCC(C)(C)C(=O)Nc1cnc(-c2cc(-c3ccon3)n(Cc3ccccc3F)n2)nc1N               EC50          < 20 µM
18  N#Cc1cnc(-c2cc(-c3ncco3)n(Cc3ccccc3F)n2)nc1O               EC50          < 20 µM
19  Nc1nc(-c2cc(-c3ccon3)n(Cc3ccccc3F)n2)ncc1NC(=O)[C@@H]1CCCN1               EC50     60 to 100 µM
20  O=S(=O)(c1ccc(F)cc1)c1cnc(-c2cc(-c3ccon3)n(Cc3ccccc3F)n2)nc1O               EC50          < 20 µM
21  Nc1nc(-c2cc(-c3ccon3)n(Cc3ccccc3F)n2)ncc1NC(=O)c1ccc(F)cc1               EC50          < 20 µM
22  Nc1cnc(-c2cc(-c3ncco3)n(Cc3ccccc3F)n2)nc1N               EC50      20 to 40 µM
23  Oc1nc(-c2cc(-c3ncco3)n(Cc3ccccc3F)n2)ncc1F               EC50      20 to 40 µM
24  Oc1cc(O)nc(-c2cc(-c3ccon3)n(Cc3ccccc3F)n2)n1               EC50    300 to 600 µM
25  CC(C)(C)NC(=O)c1cnc(-c2cc(-c3ccon3)n(Cc3ccccc3F)n2)nc1N               EC50          < 20 µM
